Origin of the recorded values: paper PMC12348470

System: Danio rerio embryos
Experiment: Zebrafish embryo toxicity (OECD TG 236)
Assay type: in vivo
Details: 120 hpf
Ends that are not written are not given here.
metric name: concentration at which yolk sac retention was observed (ng/mL)
# output: bare number, implied unit ng/mL

INSERT INTO assay_data (sequence_code, result_number) VALUES
  ('MWGRILATVAKYGPKAVSWAWQHKWELINMGDLAFRYIQRIWG [Peptide G7A]', 3130),
  ('MWGRILGTVAKYGPKAVSWAWQHKWELINMGDLAFRYIQRIWG [LBU]', 6250);

Determine its reported concentration at which yolk sac retention was observed: MWGRILGTVAKYAPKAVSWAWQHKWELINMGDLAFRYIQRIWG [Peptide G13A] 1560

Look up and state reported concentration at which yolk sac retention was observed for MWARILGTVAKYGPKAVSWAWQHKWELINMGDLAFRYIQRIWG [Peptide G3A] 6250

---

Measured MBC values are reported for all entries that follow.
Tested on: S. aureus ATCC 25923
Type: cell-based, Staphylococcus aureus
Ends that are not written are not given here.

These solved cases illustrate the format of a correct answer.
INSERT INTO measurements (sequence_code, experimental_system, metric_name, result) VALUES
  ('MEGRILGTVAKYGPKAVSWAWQHKWELINMGDLAFRYIQRIWG [Peptide W2E]', 'S. aureus ATCC 25923', 'MBC', '>50 µg/mL'),
  ('MWGRILATVAKYGPKAVSWAWQHKWELINMGDLAFRYIQRIWG [Peptide G7A]', 'S. aureus ATCC 25923', 'MBC', '25 µg/mL'),
  ('MWARILGTVAKYGPKAVSWAWQAKWELINMGDLAFRYIQRIWG [G3A/H23A]', 'S. aureus ATCC 25923', 'MBC', '>50 µg/mL'),
  ('MWARILGTVAKYGPKAVSWAWQHKWELINMGDLAFRYIQRIWG [Peptide G3A]', 'S. aureus ATCC 25923', 'MBC', '25 µg/mL'),
  ('MWGRILGTVAKYAPKAVSWAWQHKWELINMGDLAFRYIQRIWG [Peptide G13A]', 'S. aureus ATCC 25923', 'MBC', '12.5 µg/mL');

Let us move to another entry and its MBC.
Indicate the recorded MBC value for this sequence: MWGRILGTVAKYGPKAVSWAWQHKWELINMGDLAFRYIQRIWG [LBU] 25 µg/mL

---

System: S. aureus ATCC 25923
Format: cell-based, Staphylococcus aureus
Ends that are not written are not given here.
metric name: MBC

Worked cases, MBC given:
INSERT INTO measurements (sequence_code, result) VALUES
  ('MWGRILGTVAKYGPKAVSWAWQRKWELINMGDLAFRYIQRIWG [Peptide H23R]', '50 µg/mL'),
  ('MWGRILGTVAKYGTKAVSWAWQHKWELINMGDLAFRYIQRIWG [Peptide P14T]', '>50 µg/mL');

Now look at this one.
Look up and report measured MBC for this entry: MWGRILGTVAKYGPKAVSWAWQAKWELINMGDLAFRYIQRIWG [Peptide H23A] >50 µg/mL
